The reader will find reported EC50 values listed item by item below.
Tested on: HBV viral production from HepAD38 cells
Assay: Activity of test compounds on viral production from HepAD38 cells (viral load by qPCR of HBV core sequence in supernatant)
Type: cell-based
Conditions: Hepatitis B virus, 120 h, 5 days incubation, HBV DNA in supernatant by qPCR, top concentration 10 μM, read-out: Viral Load EC50 Activity range

Would you please look over these solved cases?
| molecule | EC50 |
| --- | --- |
| CN1[C@H](C(=O)Nc2ccc(F)c(Cl)c2)C[C@H](c2ncc(-c3ccccc3)s2)NS1(=O)=O | < 1 µM |
| CN1[C@@H](C(=O)Nc2ccc(F)c(Cl)c2)C[C@@H](c2cc(-c3ccc(F)cc3)cs2)NS1(=O)=O | 1 to 5 µM |
| Cc1nn(C)c(C)c1-c1ccc([C@@H]2C[C@H](C(=O)Nc3ccc(F)c(Cl)c3)N(C)S(=O)(=O)N2)s1 | 1 to 5 µM |
| COc1ccc(-c2cnc(C3CC(C(=O)Nc4ccc(F)c(Cl)c4)N(C)S(=O)(=O)N3)s2)cc1 (racemic) | < 1 µM |
| CN1[C@H](C(=O)Nc2ccc(F)c(Cl)c2)C[C@H](c2ncc(-c3ccccn3)s2)NS1(=O)=O | < 1 µM |
| O=C(Nc1ccc(F)c(Cl)c1)[C@@H]1C[C@H](c2nccs2)NS(=O)(=O)N1CCCO | < 1 µM |
| CN1C(C(=O)Nc2ccc(F)c(Cl)c2)CC(c2cccc(OC(F)F)c2)NS1(=O)=O (racemic) | < 1 µM |
| CN1[C@@H](C(=O)Nc2ccc(F)c(Cl)c2)C[C@@H](c2cc(-c3ncn(C)n3)cs2)NS1(=O)=O | > 5 µM |
| C[C@H]1C[C@@H](C(=O)Nc2ccc(F)c(Cl)c2)N(C)S(=O)(=O)N1 | 1 to 5 µM |
| O=C(Nc1ccc(F)c(Cl)c1)[C@H]1C[C@@H](c2nccs2)NS(=O)(=O)N1CCCN1CCOCC1 | > 5 µM |

Param request: EC50 | system HBV viral production from HepAD38 cells | item O=C(Nc1ccc(F)c(Cl)c1)C1CC(c2nccs2)NS(=O)(=O)N1CCc1c[nH]nn1 (racemic)
1 to 5 µM

Param request: EC50 | system HBV viral production from HepAD38 cells | item `CN1[C@H](C(=O)Nc2ccc(F)c(Cl)c2)C[C@H](c2cc(-c3ccccc3)cs2)NS1(=O)=O`
< 1 µM

Param request: EC50 | system HBV viral production from HepAD38 cells | item `CN1[C@@H](C(=O)Nc2ccc(F)c(Cl)c2)C[C@@H](c2ccc(Cl)cc2)NS1(=O)=O`
> 5 µM

Param request: EC50 | system HBV viral production from HepAD38 cells | item `COCCN1[C@H](C(=O)Nc2ccc(F)c(Cl)c2)C[C@H](c2ccc(F)cc2)NS1(=O)=O`
< 1 µM

Param request: EC50 | system HBV viral production from HepAD38 cells | item `O=C(Nc1ccc(F)c(Cl)c1)[C@H]1C[C@@H](c2nccs2)NS(=O)(=O)N1`
> 5 µM

Param request: EC50 | system HBV viral production from HepAD38 cells | item `COCCN1[C@@H](C(=O)Nc2ccc(F)c(Cl)c2)C[C@@H](c2cccs2)NS1(=O)=O`
> 5 µM

Param request: EC50 | system HBV viral production from HepAD38 cells | item CN(C)CCOc1ccc(C2CC(C(=O)Nc3ccc(F)c(Cl)c3)N(C)S(=O)(=O)N2)s1 (racemic)
< 1 µM

Param request: EC50 | system HBV viral production from HepAD38 cells | item Cc1ncc(C2CC(C(=O)Nc3ccc(F)c(Cl)c3)N(C)S(=O)(=O)N2)s1 (racemic)
< 1 µM

Param request: EC50 | system HBV viral production from HepAD38 cells | item CN1C(C(=O)Nc2ccc(F)c(Cl)c2)CC(c2ccc(O)c(Cl)c2)NS1(=O)=O (stereo not shown)
< 1 µM

Param request: EC50 | system HBV viral production from HepAD38 cells | item `CN1[C@@H](C(=O)Nc2ccc(F)c(Cl)c2)C[C@@H](c2ccc(-c3ccc(F)cn3)s2)NS1(=O)=O`
> 5 µM

Param request: EC50 | system HBV viral production from HepAD38 cells | item `CN1[C@H](C(=O)Nc2ccc(F)c(Cl)c2)C[C@H](c2cc(-c3ncn(C)n3)cs2)NS1(=O)=O`
< 1 µM
